- protocol: Liver microsome assay
- Assay type: in vitro ADME
- details: 0.25 mg/mL human liver microsomes
parameterMeasured: half-life at 20 µM

*Q* What does the record list as half-life at 20 µM for NC(CC1CNc2ccccc21)C(=O)NCCCOc1ccc(N2C(=O)/C(=C/c3ccc([N+](=O)[O-])s3)SC2=S)cc1 (stereo not shown) ?
*A* > 5 h

The measurements presented in this section are drawn from patent US12649734B2.
